# System Tested: EGFR recombinant human protein (human, UniProt P00533 25-645)
# Method Notes: SPR
Experimental Endpoint: Kd (µM)
Answer format: numeric, µM implied, no suffix.

// Kd lookup, key: AEYDFYGPGNEGSW (designed binder) [Pep24]
7.2
